- Test Target: 3-hydroxyacyl-CoA dehydrogenase type-2 (Homo sapiens) (UniProt Q99714)
- Test Summary: qHTS Assay for Inhibitors of HSD17B4, hydroxysteroid (17-beta) dehydrogenase 4;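 further: the protocol describes HADH2 (HSD17B10) and not the HSD17B4 of the title; nearly all actives have a fitted effect of over 70% in size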
- Experimental Conditions: recombinant HSD17B10, NADH fluorescence kinetic; series mostly up to 57.1 µM
About 5,700 (7.6%) of roughly 75,000 compounds were called active. About 7% were inconclusive and are not listed. The call rests on the fitted dose curve; in most records, active means well fitted inhibition curve with a large enough effect; inconclusive means small, poorly fitted or top-dose-only effect; inactive means no such curve, though single readings can be large or run the other way. Many of the other results were omitted from the sample, so actives are more common in it than they were.
Mark one answer only. Choices: active, inactive

A selection of reference data follows.
INSERT INTO measurements (compound, label_class) VALUES
  ('COC(=O)c1cc(S(=O)(=O)NC2CCN(Cc3ccccc3)CC2)cn1C', 'inactive'),
  ('Cc1cccn2c(=O)c3cc(C#N)c(=NC(=O)c4cccnc4)n(CC4CCCO4)c3nc12 (stereo not drawn)', 'active'),
  ('CC[C@@H]1Cc2cc(O)ccc2C2=C1c1ccc(O)cc1C[C@H]2CC', 'active'),
  ('C[N+](C)(CCCCCC[N+](C)(C)CCCN1C(=O)c2cccc3cccc(c23)C1=O)CCCN1C(=O)c2cccc3cccc(c23)C1=O', 'active'),
  ('O=c1cc(CO)oc(CN2CCC(Cc3ccccc3)CC2)c1O', 'inactive');

[Q] State the result this test recorded for `CN(CCc1ccccn1)S(=O)(=O)c1ccc2c3c(cccc13)C(=O)N2` .
[A] active

[Q] Okay, and CCC(CCC(C)C1CCC2C3CC=C4CC(O)CC[C@@]4(C)C3CC[C@@]12C)C(C)C (stereo partly drawn) ?
[A] inactive

[Q] Also, CCC1=[N+]([O-])C(C)(/C(C)=N\O)N(O)C1(C)C (stereo not drawn) please.
[A] inactive

[Q] Another compound: `Cn1c(=O)c2c(nc(CN3CCOCC3)n2Cc2ccccc2)n(C)c1=O`
[A] inactive

[Q] Follow-up item: `O=C(Nc1cccc(C(=O)N2CCCC2)c1)c1ccccc1`
[A] inactive

[Q] Same thing, different compound: `Cc1ccn2cc(C(=O)NC3CCN(Cc4ccccc4)CC3)nc2c1`
[A] active

[Q] Same again, this time with `CCN1C(=O)c2cccc3c(N)ccc1c23`
[A] inactive

----------
- Test Target: 3-hydroxyacyl-CoA dehydrogenase type-2 (Homo sapiens)
- Test Summary: qHTS Assay for Inhibitors of HSD17B4, hydroxysteroid (17-beta) dehydrogenase 4;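 further: the protocol describes HADH2 (HSD17B10) and not the HSD17B4 of the title; nearly all actives have a fitted effect of over 70% in size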
- Experimental Conditions: recombinant HSD17B10, NADH fluorescence kinetic; series mostly up to 57.1 µM
The campaign covered roughly 75,000 compounds. About 5,700 (7.6%) were called active. Not shown: some 7% with an inconclusive outcome. The call rests on the fitted dose curve; in most records, active means well fitted inhibition curve with a large enough effect; inconclusive means small, poorly fitted or top-dose-only effect; inactive means no such curve, though single readings can be large or run the other way. For the sample, actives were picked, then their nearest neighbours and some compounds at random.
The categories you may choose from are 1 for active, -1 for inactive

Previously resolved entries follow.
INSERT INTO measurements (compound, label_class) VALUES
  ('COc1cccc(Nc2ncc3ncc(=O)n(C4CC4)c3n2)c1', -1),
  ('CCCCOCCCNC(=O)c1ccccc1OCC', -1),
  ('CCOC(=O)CNC(=O)CSc1nnc(-c2cccc(OC)c2)n1CC', -1),
  ('Cc1ccc(-n2ncc3c2ncn2nc(-c4ccco4)nc32)c(C)c1', 1),
  ('O=C(Nc1ccccc1F)C1C2C=CC3(O2)C1C(=O)N(c1cccnc1)C3C(=O)NC1CCCCC1 (stereo not drawn)', -1),
  ('CCOC(=O)CCCNC(=O)CN1C(=O)NC(CCc2ccccc2)C1=O (stereo not drawn)', -1),
  ('O=C(CCn1c(=S)[nH]c2ccccc2c1=O)NCCCN1CCCC1=O', -1),
  ('CN(C)c1ncc2nc(-c3ccc(F)cc3)c(=O)n(Cc3ccc(F)cc3)c2n1', 1);

Let us examine a further case.
[Q] Hey, what did the test say about `Cc1nc2cnc(Nc3ccccc3)nc2n(Cc2ccc(F)cc2)c1=O` ?
[A] -1
